Target: hNaV1.7 (Homo sapiens)
Sequence (Q15858 1-1977 isoform Q15858-3): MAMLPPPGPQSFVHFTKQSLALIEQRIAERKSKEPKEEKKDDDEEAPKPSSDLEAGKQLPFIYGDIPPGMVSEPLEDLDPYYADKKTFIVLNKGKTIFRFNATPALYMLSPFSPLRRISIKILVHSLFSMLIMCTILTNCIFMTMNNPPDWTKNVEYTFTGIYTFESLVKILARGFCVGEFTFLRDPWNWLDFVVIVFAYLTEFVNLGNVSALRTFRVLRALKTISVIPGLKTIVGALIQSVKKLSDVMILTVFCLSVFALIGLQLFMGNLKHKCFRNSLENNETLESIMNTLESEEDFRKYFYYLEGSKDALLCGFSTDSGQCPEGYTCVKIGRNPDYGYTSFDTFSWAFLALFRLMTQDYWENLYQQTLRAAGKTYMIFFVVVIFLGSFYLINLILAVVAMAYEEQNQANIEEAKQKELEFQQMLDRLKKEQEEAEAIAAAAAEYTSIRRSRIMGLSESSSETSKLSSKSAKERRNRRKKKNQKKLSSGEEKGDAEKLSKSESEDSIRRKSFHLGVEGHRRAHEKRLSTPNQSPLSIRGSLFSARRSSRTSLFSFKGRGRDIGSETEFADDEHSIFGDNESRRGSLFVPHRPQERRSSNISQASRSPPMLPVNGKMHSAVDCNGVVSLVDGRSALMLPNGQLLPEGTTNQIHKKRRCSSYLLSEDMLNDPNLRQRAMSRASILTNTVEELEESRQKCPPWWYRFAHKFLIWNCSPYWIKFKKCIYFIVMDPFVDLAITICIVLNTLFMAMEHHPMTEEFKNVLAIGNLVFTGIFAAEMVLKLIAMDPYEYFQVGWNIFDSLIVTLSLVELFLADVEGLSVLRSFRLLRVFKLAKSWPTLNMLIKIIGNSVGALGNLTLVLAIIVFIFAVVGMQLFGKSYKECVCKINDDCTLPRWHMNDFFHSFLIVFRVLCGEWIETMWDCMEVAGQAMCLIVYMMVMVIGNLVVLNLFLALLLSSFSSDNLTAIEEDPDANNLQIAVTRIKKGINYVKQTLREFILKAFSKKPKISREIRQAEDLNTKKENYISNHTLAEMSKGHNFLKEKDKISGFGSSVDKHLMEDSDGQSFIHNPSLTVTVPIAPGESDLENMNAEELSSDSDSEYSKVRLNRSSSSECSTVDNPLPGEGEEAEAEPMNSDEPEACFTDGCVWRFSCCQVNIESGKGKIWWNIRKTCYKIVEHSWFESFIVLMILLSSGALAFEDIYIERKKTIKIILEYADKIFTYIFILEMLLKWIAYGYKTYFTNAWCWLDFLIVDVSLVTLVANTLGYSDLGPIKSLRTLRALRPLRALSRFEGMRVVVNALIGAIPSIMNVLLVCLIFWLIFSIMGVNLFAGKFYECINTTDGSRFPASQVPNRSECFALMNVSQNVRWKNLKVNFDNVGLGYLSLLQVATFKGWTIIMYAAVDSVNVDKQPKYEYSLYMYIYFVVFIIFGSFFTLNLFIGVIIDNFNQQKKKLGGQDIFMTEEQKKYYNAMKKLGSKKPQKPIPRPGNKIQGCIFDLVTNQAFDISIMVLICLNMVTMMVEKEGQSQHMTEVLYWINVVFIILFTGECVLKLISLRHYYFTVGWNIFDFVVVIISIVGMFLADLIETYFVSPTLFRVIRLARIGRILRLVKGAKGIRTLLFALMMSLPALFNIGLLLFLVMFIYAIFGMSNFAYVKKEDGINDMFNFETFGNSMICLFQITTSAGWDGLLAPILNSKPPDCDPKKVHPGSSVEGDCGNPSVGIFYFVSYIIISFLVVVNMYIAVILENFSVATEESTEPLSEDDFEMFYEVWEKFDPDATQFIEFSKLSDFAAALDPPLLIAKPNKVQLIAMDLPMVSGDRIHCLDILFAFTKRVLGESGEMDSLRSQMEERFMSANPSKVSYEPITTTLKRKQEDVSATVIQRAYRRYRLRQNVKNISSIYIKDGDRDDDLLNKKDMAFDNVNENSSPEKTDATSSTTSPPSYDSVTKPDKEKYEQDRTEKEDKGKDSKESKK
Sequence (Q07699 19-218 partner): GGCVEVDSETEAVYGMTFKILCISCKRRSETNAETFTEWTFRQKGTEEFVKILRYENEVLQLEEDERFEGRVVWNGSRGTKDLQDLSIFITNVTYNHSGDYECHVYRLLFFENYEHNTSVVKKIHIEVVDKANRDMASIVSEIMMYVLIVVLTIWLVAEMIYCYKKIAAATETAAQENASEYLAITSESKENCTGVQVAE
Test: Voltage-dependent block (VDB) of hNaV1.7, QPatch whole-cell voltage-clamp in HEK-293 cells
Assay type: cell-based
Settings: 8 s prepulse to −60 mV; at a given concentration (not given)
recorded_endpoint: hNav1.7 VDB % Inhibition

* FC(F)(F)Oc1ccc(-c2ccc3nnc(Oc4ccccc4)n3c2)cc1 [D] | 89.74%
* COc1ccccc1OCC(O)CN1CCN(CC(=O)Nc2c(C)cccc2C)CC1 (racemic) [Ranolazine] | 17.23%
* COCC(F)(F)c1nnc2ccc(-c3ccc(Oc4ccc(Cl)cc4)cc3)cn12 [F] | 14.72%
* CS(=O)(=O)Nc1ccc(-c2ccc(Cl)c(C(F)(F)F)c2)c(Cl)c1 [G] | 6.04%
* CC(C)(C)OC(=O)N[C@H](Cc1ccccc1)C(=O)N[C@@H]1CCc2ccccc2N(CC(F)(F)F)C1 [E] | 23.73%
* O=C(NCc1ccc(C(F)(F)F)c(Cl)c1)c1ccc(S(=O)(=O)Nc2ncc(Cl)s2)cc1 [C] | 7.81%
* FC(F)(F)Oc1ccc(-c2ccc3nnc(C(F)(F)F)n3c2)cc1 [Compound A] | 87.17%
